experimental-target: cyclophilin A (CypA) (Homo sapiens)
Sequence (P62937 whole entry): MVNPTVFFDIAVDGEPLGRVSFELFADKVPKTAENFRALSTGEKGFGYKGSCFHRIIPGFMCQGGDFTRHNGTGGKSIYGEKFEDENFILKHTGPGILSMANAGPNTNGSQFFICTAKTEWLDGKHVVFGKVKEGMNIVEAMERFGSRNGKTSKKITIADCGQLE
method-summary: Binary complex binding assay (BLI)
applied-conditions: His-tagged CypA, pH 7.4, 1:1 binding model, read-out: KD1 (binary complex equilibrium dissociation constant)
quantity-measured: log10 of Kd (log10 of the value in nM)
Friendly reminder: values = log10 of Kd, unit nM.

Input line: Name the recorded log10 of Kd of the item CO[C@@H](C)c1ncc(-c2nnc(C3CCN(C4COC4)CC3)o2)cc1-c1c2c3cc(ccc3n1CC(F)(F)F)-c1csc(n1)C[C@H](NC(=O)C1[C@@H](C)[C@H]1C)C(=O)N1N[C@H](C(=O)OCC(C)(C)C2)C2CC1C2 (stereo partly drawn) in your answer.
Output line: 0.30

Input line: Name the recorded log10 of Kd of the item CO[C@@H](C)c1ncc(-c2nnc(C3CCN(C4COC4)CC3)o2)cc1-c1c2c3cc(ccc3n1CC(F)(F)F)-c1csc(n1)C[C@H](NC(=O)[C@H]1C[C@@H]1C)C(=O)N1CCC[C@H](N1)C(=O)OCC(C)(C)C2 (atropisomer, axis not shown) in your answer.
Output line: 0.93

Input line: Name the recorded log10 of Kd of the item CCn1c(-c2cc(-c3nc(C4CCN(C5COC5)CC4)n(C)n3)cnc2[C@H](C)OC)c2c3cc(ccc31)-c1csc(n1)C[C@H](NC(=O)[C@H]1[C@H](C)[C@@H]1C)C(=O)N1CCC[C@H](N1)C(=O)OCC(C)(C)C2 (atropisomer, axis not shown) in your answer.
Output line: -0.09
